Biological target: SARS-CoV-2 Lambda (C.37) RBD (SARS-CoV-2 Lambda (C.37), strain)
test readout: binding result

INSERT INTO results (binder, test_readout, reported) VALUES
  ('YB9-102 (antibody, V domains shown) VH: EVQLLESGGGLVQPGGSLRLSCTASGFTFRYYAMTWVRQAPGKGLEWVSVIIGSGGDTYYADSVKGRFTISRDNSKNTLYLQMDSLRAEDTAVYYCATGELELGTCYFDYWGQGTLVTVSS VL: DIQMTQSPSSVSASVGDRVTITCRASQGISSWLAWYQQKPGEAPKLLISAASSLQSGVPSRFSGSGSETDFTLTISSVQPEDFATYYCQQANSFPQAFGQGTKVEIK', 'binding result', 'binds'),
  ('YB13-275 (antibody, V domains shown) V domain 1: QITLKESGPRLVKPTQTLTLTCTFSGFSLATAGMSVGWIRQPPGKALEWLALIYWDDDDRYSPSLKSRLTITKDTSRNQVVLTMTNMDPVDTATYYCIHPRFYSDPSGYYFIWGQGTMVTVSS V domain 2: SYELTQPPSVSVSPGQTARITCSGDALAKQYAYWYQQKPGQAPVQVMYKDGERPSGIPERFSGSKSGTTVTLTISAVQAEDEADYFCQSADNSGFYVFGTGTQVTVL', 'binding result', 'binds'),
  ('YB13-281 (antibody, V domains shown) VH: EVQLVESGGGLVKPGGSLRLSCAASGFTFSSYSMNWVRQAPGKGLEWVSSISSSSSYIHYADSVKGRFTISRDNAKNSLYLQMNSLRAEDTAVYYCARVSSKDYYDRSGYLRGDYDYGMDVWGQGTTVTVSS VL: QSVLTQPPSVSGAPGQRVTISCTGNSSNIGAAYDVHWYQQLPGTAPKLLIYGNSNRPSGVPDRFSGSKSGTSASLAITGLQAEDEADYYCQSYDSSLSGVFGGGTKLTVL', 'binding result', 'binds');
